From: patent US20100260765A1

For each of the binders below, state its ELISA reading.
Biological target: T1, soluble KDR extracellular domain (ECD) (Calbiochem) (human, UniProt P35968 20-764)
T1 construct: extracellular domain; Bought protein; also called KDR-ECD; VEGF Receptor 2 D1-7, Cat. #676490
T1 sequence (P35968 20-764): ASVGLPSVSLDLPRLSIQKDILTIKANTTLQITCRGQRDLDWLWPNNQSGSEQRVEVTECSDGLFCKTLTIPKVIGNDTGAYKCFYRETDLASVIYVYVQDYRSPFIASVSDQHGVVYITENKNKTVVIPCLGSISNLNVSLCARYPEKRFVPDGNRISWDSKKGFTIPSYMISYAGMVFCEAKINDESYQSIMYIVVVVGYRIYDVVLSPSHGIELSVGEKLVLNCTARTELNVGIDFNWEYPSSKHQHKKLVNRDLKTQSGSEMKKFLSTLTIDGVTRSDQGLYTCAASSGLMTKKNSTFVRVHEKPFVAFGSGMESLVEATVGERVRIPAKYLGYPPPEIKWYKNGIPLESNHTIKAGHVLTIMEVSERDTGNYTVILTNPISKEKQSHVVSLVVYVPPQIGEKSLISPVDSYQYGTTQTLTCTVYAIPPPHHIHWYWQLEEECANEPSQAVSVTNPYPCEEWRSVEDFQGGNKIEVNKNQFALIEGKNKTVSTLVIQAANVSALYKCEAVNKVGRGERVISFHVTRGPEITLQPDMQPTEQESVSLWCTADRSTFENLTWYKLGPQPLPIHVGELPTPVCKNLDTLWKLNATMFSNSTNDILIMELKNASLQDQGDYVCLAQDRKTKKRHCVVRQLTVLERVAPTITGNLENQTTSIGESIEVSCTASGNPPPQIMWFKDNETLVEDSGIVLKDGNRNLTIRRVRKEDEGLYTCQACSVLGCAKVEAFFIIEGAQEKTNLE
Assay: Limited Antigen ELISA, KDR coat 50 ng/mL, supernatant 1:25

The binder listed as 33C3 (antibody, V domains shown, Fully human mAb from XenoMouse hybridoma, tested as hybridoma supernatant) VH: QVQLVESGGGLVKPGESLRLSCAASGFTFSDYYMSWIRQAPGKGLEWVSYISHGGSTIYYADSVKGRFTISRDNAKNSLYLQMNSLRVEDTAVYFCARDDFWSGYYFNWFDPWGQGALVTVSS VL: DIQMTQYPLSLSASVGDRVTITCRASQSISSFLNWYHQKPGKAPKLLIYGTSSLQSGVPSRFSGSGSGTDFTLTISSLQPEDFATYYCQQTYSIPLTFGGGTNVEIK has a reported ELISA reading of 3

The binder listed as 32F4 (antibody, V domains shown, Fully human mAb from XenoMouse hybridoma, tested as hybridoma supernatant) VH: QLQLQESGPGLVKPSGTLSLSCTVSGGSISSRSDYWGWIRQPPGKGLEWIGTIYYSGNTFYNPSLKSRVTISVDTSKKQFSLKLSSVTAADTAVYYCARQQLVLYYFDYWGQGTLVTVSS VL: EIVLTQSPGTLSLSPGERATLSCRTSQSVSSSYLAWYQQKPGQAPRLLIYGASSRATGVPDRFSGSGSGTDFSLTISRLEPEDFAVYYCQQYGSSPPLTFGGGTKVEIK has a reported ELISA reading of 2.22

The binder listed as 29F7 (antibody, V domains shown, Fully human mAb from XenoMouse hybridoma, tested as hybridoma supernatant) VH: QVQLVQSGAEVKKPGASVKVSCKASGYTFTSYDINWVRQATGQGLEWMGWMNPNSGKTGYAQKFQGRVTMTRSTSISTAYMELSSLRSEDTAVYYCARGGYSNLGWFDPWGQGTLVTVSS VL: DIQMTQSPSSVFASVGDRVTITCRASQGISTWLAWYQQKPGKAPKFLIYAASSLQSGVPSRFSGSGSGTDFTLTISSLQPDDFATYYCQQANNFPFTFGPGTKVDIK has a reported ELISA reading of 3.54
